- system-name: UniProt Q28044
- assay-overview: cAMP assay in CHO cells transfected with the bovine beta-2 adrenoceptor (DiscoveRx Hit Hunter cAMP II)
- measurement-conditions: CHO cells transfected with bovine beta-2 adrenoceptor, 30 minutes incubation with compound
// reported pEC50 per item
Just the number, please; pEC50 means minus log10 of the concentration in mol/L.

CC(CCn1ccnc1)N[C@@H]1CCn2c(=O)[nH]c3cccc(c32)[C@H]1O (mixture of isomers) = 7.32
Cc1[nH]c2ccccc2c1CCC(C)N[C@@H]1CCn2c(=O)[nH]c3cccc(c32)[C@H]1O (mixture of isomers) = 8.26
CC(CCc1cccc2cc[nH]c12)N[C@@H]1CCn2c(=O)[nH]c3cccc(c32)[C@H]1O (single isomer, unassigned) [Example 38a] = 7.36
CC(CCc1cncc(N)c1)N[C@@H]1CCn2c(=O)[nH]c3cccc(c32)[C@H]1O (single isomer, unassigned) = 8.85
CC(CCc1cnc(Cl)s1)N[C@@H]1CCn2c(=O)[nH]c3cccc(c32)[C@H]1O (mixture of isomers) = 8.54

What pEC50 appears in the records for this molecule with UniProt Q28044? Cc1nn(C)c(C)c1CCC(C)N[C@@H]1CCn2c(=O)[nH]c3cccc(c32)[C@H]1O (single isomer, unassigned) [Example 48]
8.47

What pEC50 appears in the records for this molecule with UniProt Q28044? CC(CCc1cccnc1N)N[C@@H]1CCn2c(=O)[nH]c3cccc(c32)[C@H]1O (single isomer, unassigned)
8.89

What pEC50 appears in the records for this molecule with UniProt Q28044? CC(CCc1nccs1)N[C@@H]1CCn2c(=O)[nH]c3cccc(c32)[C@H]1O (mixture of isomers) [Example 24b]
7.04

What pEC50 appears in the records for this molecule with UniProt Q28044? CCOC(=O)c1[nH]c2ccccc2c1CC(C)NC1CCn2c(=O)[nH]c3cccc(c32)C1O (single isomer, unassigned)
7.59

What pEC50 appears in the records for this molecule with UniProt Q28044? CC(CCc1c[nH]c2ccc(OCc3ccccc3)cc12)N[C@@H]1CCn2c(=O)[nH]c3cccc(c32)[C@H]1O (mixture of isomers)
7.60

What pEC50 appears in the records for this molecule with UniProt Q28044? CC(CCc1c[nH]c2ccncc12)N[C@@H]1CCn2c(=O)[nH]c3cccc(c32)[C@H]1O (single isomer, unassigned) [Example 31b]
7.24

What pEC50 appears in the records for this molecule with UniProt Q28044? CC(CCc1c[nH]c2ccncc12)N[C@@H]1CCn2c(=O)[nH]c3cccc(c32)[C@H]1O (single isomer, unassigned) [Example 62]
7.46

What pEC50 appears in the records for this molecule with UniProt Q28044? CC(CCc1c[nH]c2cccnc12)N[C@@H]1CCn2c(=O)[nH]c3cccc(c32)[C@H]1O (single isomer, unassigned)
8.36

====

- system-name: porcine beta-2 adrenoceptor (Sus scrofa, UniProt Q28997)
- Construct: expressed in transfected cells; host or cells: CHO cells
- Sequence (Q28997 whole entry): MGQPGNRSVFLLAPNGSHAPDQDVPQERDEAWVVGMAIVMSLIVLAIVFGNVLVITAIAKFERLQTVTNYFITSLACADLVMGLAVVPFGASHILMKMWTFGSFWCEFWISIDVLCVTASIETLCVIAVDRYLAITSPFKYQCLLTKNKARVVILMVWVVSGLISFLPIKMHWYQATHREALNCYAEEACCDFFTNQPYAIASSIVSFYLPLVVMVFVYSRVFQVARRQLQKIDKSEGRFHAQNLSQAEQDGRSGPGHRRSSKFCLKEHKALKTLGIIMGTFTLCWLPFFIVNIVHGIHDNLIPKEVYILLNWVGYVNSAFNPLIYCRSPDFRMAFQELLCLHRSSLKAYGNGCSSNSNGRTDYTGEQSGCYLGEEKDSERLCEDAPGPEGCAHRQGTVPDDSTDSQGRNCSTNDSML
- assay-overview: cAMP assay in CHO cells transfected with the porcine beta-2 adrenoceptor (DiscoveRx Hit Hunter cAMP II)
- Format: cell-based
- measurement-conditions: CHO cells transfected with porcine beta-2 adrenoceptor, 30 minutes incubation with compound
// reported EC50 per item
Please reply with the bare figure in nM and do not write the unit itself.

Take a look at these entries with their results.
O=c1[nH]c2cccc3c2n1CC[C@@H](NCCc1c[nH]c2ccccc12)[C@@H]3O (racemic) [Example 40a] = 20
CC(CCc1c[nH]c2ccncc12)NC1CCn2c(=O)[nH]c3cccc(c32)C1O (centres unmarked) [Example 31a] = 146
CC(CCc1c[nH]c2cnccc12)N[C@@H]1CCn2c(=O)[nH]c3cccc(c32)[C@H]1O (single isomer, unassigned) [Example 57] = 13
Cc1nc(C)c(CCC(C)N[C@@H]2CCn3c(=O)[nH]c4cccc(c43)[C@H]2O)s1 (single isomer, unassigned) [Example 23b] = 4.9
CC(CCc1ccncc1)N[C@@H]1CCn2c(=O)[nH]c3cccc(c32)[C@H]1O (mixture of isomers) = 53
CC(CCc1cc(Br)no1)N[C@@H]1CCn2c(=O)[nH]c3cccc(c32)[C@H]1O (single isomer, unassigned) = 1.3

// query EC50 value for entry CC(Cc1c[nH]c2ccccc12)N[C@@H]1CCn2c(=O)[nH]c3cccc(c32)[C@H]1O (some centres unmarked)
4.9

// query EC50 value for entry CC(CCc1cncs1)N[C@@H]1CCn2c(=O)[nH]c3cccc(c32)[C@H]1O (single isomer, unassigned) [Example 49]
6.4

// query EC50 value for entry CC(CCc1nc2ccccc2[nH]1)NC1CCn2c(=O)[nH]c3cccc(c32)C1O (centres unmarked)
53

// query EC50 value for entry CC(CCc1nccs1)NC1CCn2c(=O)[nH]c3cccc(c32)C1O (centres unmarked) [Example 24a]
464

// query EC50 value for entry CC(CCc1cn(C)c2ccccc12)N[C@@H]1CCn2c(=O)[nH]c3cccc(c32)[C@H]1O (mixture of isomers) [Example 14c]
4.2

// query EC50 value for entry CC(CCc1c[nH]c2ccc(OCc3ccccc3)cc12)N[C@@H]1CCn2c(=O)[nH]c3cccc(c32)[C@H]1O (mixture of isomers)
33

// query EC50 value for entry CC(CCc1cc(F)cc2cc[nH]c12)N[C@@H]1CCn2c(=O)[nH]c3cccc(c32)[C@H]1O (mixture of isomers) [Example 1a]
1.4

// query EC50 value for entry CC(CCc1cnsc1)N[C@@H]1CCn2c(=O)[nH]c3cccc(c32)[C@H]1O (single isomer, unassigned)
0.9

====

// reported pEC50 per item
- system-name: bovine beta-2 adrenoceptor (Bos taurus, UniProt Q28044)
- Sequence (Q28044 whole entry): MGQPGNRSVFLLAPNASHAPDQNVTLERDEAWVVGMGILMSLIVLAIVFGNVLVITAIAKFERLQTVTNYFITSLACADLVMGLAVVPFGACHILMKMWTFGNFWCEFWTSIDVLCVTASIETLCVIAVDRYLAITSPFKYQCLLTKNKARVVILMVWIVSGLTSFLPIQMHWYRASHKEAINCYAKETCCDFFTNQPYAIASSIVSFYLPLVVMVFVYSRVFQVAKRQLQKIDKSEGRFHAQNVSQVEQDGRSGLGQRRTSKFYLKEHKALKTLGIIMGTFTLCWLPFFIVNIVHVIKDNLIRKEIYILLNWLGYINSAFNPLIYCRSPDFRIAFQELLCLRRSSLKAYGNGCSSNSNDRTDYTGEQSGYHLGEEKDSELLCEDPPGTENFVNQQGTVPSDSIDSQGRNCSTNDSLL
- assay-overview: cAMP assay in CHO cells transfected with the bovine beta-2 adrenoceptor (DiscoveRx Hit Hunter cAMP II)
- measurement-conditions: CHO cells transfected with bovine beta-2 adrenoceptor, 30 minutes incubation with compound
Just the number, please; pEC50 means minus log10 of the concentration in mol/L.

Take a look at these entries with their results.
Cc1ncc(CCC(C)N[C@@H]2CCn3c(=O)[nH]c4cccc(c43)[C@H]2O)s1 (mixture of isomers) [Example 28a] = 6.89
CC(CCc1n[nH]c2ccccc12)N[C@@H]1CCn2c(=O)[nH]c3cccc(c32)[C@H]1O (single isomer, unassigned) [Example 58] = 8.08
CC(CCc1cn(C)c2ccccc12)NC1CCn2c(=O)[nH]c3cccc(c32)C1O (stereo not shown) [Example 14a] = 7.74
CNc1nc(CC(C)NC2CCn3c(=O)[nH]c4cccc(c43)C2O)ns1 (stereo not shown) [Example 10] = 6.30
CC(CC(C)(C)c1cn(C)c2ccccc12)N[C@@H]1CCn2c(=O)[nH]c3cccc(c32)[C@H]1O (mixture of isomers) [Example 20] = 6.80

// query pEC50 value for entry CC(Cc1ccco1)NC1CCn2c(=O)[nH]c3cccc(c32)C1O (stereo not shown) [Example 11]
6.97

// query pEC50 value for entry CC(CCn1cccn1)NC1CCn2c(=O)[nH]c3cccc(c32)C1O (stereo not shown) [Example 15]
6.79

// query pEC50 value for entry Cc1ncc(CCC(C)N[C@@H]2CCn3c(=O)[nH]c4cccc(c43)[C@H]2O)s1 (single isomer, unassigned) [Example 28b]
8.18

// query pEC50 value for entry CC(CCc1cn(C)c2ccccc12)N[C@@H]1CCn2c(=O)[nH]c3cccc(c32)[C@H]1O (mixture of isomers) [Example 14c]
8.26

// query pEC50 value for entry CC(CCc1cncs1)N[C@@H]1CCn2c(=O)[nH]c3cccc(c32)[C@H]1O (single isomer, unassigned) [Example 6a]
7.64

// query pEC50 value for entry CC(CCc1ccc(C(=O)O)o1)N[C@@H]1CCn2c(=O)[nH]c3cccc(c32)[C@H]1O (mixture of isomers) [Example 2]
6.77

// query pEC50 value for entry CC(/C=C/c1ccc2[nH]cnc2c1)N[C@@H]1CCn2c(=O)[nH]c3cccc(c32)[C@H]1O (mixture of isomers) [Example 42]
7.64

// query pEC50 value for entry CC(CCc1ccncc1)N[C@@H]1CCn2c(=O)[nH]c3cccc(c32)[C@H]1O (mixture of isomers) [Example 27]
7.11

// query pEC50 value for entry CC(CCn1cnc2ccccc21)N[C@@H]1CCn2c(=O)[nH]c3cccc(c32)[C@H]1O (single isomer, unassigned) [Example 51]
9.22

// query pEC50 value for entry CC(CCc1ncccc1O)N[C@@H]1CCn2c(=O)[nH]c3cccc(c32)[C@H]1O (mixture of isomers) [Example 39]
6.48

// query pEC50 value for entry CC(CCc1c[nH]c2ccc(Cl)cc12)N[C@@H]1CCn2c(=O)[nH]c3cccc(c32)[C@H]1O (single isomer, unassigned) [Example 21a]
5.74

// query pEC50 value for entry CC(CCc1cscn1)N[C@@H]1CCn2c(=O)[nH]c3cccc(c32)[C@H]1O (mixture of isomers) [Example 26]
6.46

// query pEC50 value for entry CC(CCc1ccc2occc2c1)N[C@@H]1CCn2c(=O)[nH]c3cccc(c32)[C@H]1O (mixture of isomers) [Example 43]
7.80

// query pEC50 value for entry C[C@H](CCc1c[nH]c2ccccc12)N[C@@H]1CCn2c(=O)[nH]c3cccc(c32)[C@H]1O [Example 4f]
8.77
